- test_target: T1, FcRL3, overexpressed on 3T3 cells (UniProt Q96P31 18-734, limits assumed)
- T1 construct: whole, on cells
- T1 sequence (looked up): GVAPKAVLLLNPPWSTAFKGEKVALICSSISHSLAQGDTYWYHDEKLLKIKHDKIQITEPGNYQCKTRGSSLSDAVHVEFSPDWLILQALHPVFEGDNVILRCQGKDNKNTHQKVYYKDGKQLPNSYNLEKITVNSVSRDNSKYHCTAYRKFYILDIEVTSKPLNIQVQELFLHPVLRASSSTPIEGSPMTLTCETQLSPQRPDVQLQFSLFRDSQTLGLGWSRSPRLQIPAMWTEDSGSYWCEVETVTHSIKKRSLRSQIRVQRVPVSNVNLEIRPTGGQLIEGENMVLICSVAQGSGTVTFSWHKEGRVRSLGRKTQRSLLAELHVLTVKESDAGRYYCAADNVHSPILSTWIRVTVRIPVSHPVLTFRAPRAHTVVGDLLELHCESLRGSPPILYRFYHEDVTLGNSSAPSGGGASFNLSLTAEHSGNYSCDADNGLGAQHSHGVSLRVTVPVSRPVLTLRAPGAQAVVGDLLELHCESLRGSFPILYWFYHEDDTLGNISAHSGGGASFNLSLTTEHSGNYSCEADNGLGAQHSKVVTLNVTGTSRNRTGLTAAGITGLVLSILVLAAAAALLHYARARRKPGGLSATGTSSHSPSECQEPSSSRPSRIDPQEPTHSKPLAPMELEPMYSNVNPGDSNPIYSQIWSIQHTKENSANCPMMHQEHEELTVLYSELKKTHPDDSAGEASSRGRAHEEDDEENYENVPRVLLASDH
- assay_info: phage clone on 3T3-FcRL3 cells
reported_property: binding result

ET200-016 (scFv, screened as phage clone; entry is VL-linker-VH-His tag-HA tag) scFv: SSELTQDPAVSVALGQTVKITCQGDSLTDYHATWYQQKPGQAPVAVIYATNNRPTGIPDRFSGSSSGNTASLTITGAQAEDEADYYCNSRDSGTDEVLFGGGTKLTVLGSRGGGGSGGGGSGGGGSLEMAEVQLVETGGGLVKPGGSLRLSCAASGFTFSSYSMNWVRQAPGKGLEWVSSISSSSSYIYYADSVKGRFTISRDNAKNSLYLQMNSLRAEDTAVYYCARGQGYDYWGQGTLVTVSSTSGQAGQHHHHHHGAYPYDVPDYAS : no binding
ET200-105 (scFv, screened as phage clone; entry is VL-linker-VH-His tag-HA tag) scFv: SYVLTQPPSVSVSPGQTASITCSGDRLTNKYVSWYQQKPGQSPVLVIYEDAKRPSGIPARFSGSNSGNTATLTISGTQAMDESEYYCQAWDSSVVVFGGGTKLTVLGSRGGGGSGGGGSGGGGSLEMAEVQLVESGGGLVQPGRSLRLSCAASGFTFDDYAMHWVRQAPGKGLEWVSGISWNSGSIGYADSVKGRFTISRDNAKNSLYLQMNSLRDEDTALYYCAKDRGGGVIVKDAFDIWGQGTMVTVSSTSGQAGQHHHHHHGAYPYDVPDYAS : no binding

These entries and their values trace back to patent US20210388081A1.
